system.name: hERG potassium channel (Homo sapiens)
Sequence (Q12809 whole entry): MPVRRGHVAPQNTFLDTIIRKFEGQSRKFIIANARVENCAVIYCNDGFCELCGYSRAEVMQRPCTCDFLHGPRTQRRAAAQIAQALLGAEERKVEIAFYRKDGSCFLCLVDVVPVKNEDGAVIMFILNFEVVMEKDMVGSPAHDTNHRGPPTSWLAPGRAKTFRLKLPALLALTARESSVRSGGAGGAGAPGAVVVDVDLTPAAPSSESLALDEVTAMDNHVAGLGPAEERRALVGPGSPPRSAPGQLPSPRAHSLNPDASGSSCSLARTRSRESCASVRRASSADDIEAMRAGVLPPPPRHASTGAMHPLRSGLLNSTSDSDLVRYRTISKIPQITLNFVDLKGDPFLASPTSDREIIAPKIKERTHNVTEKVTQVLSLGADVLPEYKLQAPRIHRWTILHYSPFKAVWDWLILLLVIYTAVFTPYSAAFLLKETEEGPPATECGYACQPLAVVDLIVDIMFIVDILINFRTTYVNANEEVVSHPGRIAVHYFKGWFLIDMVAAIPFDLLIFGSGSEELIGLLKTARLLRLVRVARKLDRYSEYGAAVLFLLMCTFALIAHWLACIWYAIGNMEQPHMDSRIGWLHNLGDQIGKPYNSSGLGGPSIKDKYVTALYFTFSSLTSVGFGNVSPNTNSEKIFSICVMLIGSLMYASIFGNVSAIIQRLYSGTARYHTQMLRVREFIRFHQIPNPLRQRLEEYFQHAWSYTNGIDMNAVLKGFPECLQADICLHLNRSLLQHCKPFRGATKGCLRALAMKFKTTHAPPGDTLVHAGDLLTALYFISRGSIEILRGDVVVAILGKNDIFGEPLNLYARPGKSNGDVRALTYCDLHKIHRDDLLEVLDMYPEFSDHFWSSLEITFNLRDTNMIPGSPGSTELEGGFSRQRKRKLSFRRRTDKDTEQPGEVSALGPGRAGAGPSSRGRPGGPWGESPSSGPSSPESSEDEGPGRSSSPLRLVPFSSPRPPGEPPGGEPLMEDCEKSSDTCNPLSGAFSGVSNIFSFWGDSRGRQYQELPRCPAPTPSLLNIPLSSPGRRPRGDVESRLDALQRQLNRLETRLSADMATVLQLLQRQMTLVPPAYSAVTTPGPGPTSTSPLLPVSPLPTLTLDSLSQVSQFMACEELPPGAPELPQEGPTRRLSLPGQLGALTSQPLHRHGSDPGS
test.details: hERG potassium channel whole-cell patch clamp (HEK293)
Type: cell-based
Parameters: expressed in transfected cells; host or cells: HEK293 cell line
condition.info: HEK293 cells stably expressing hERG, whole-cell patch clamp, room temperature; read-out: Half-inhibition concentration of compounds to be tested on hERG (IC50)
Structures can show the parent of a compound that is named as a salt.
readout: pIC50
# pIC50: negative log10 of molar concentration; output just the value

**Q:** # return pIC50 for [2H]C([2H])([2H])N(C[C@@H]1CN(C(=O)Cc2cc(F)c(F)cc2F)CC[C@@]1(O)c1cccc(OC)c1)C([2H])([2H])[2H] [II-9hydrochloride] , test system: hERG potassium channel (Homo sapiens)
**A:** 4.69

**Q:** # return pIC50 for [2H]C([2H])([2H])Oc1cccc([C@]2(O)CCN(C(=O)Cc3cc(F)c(F)cc3F)C[C@H]2CN(C([2H])([2H])[2H])C([2H])([2H])[2H])c1 [II-11hydrochloride] , test system: hERG potassium channel (Homo sapiens)
**A:** 4.69

Now let's try a different one.
**Q:** # return pIC50 for [2H]C([2H])([2H])N(CC1CN(S(=O)(=O)Cc2ccccc2)CCC1(O)c1cccc(OC)c1)C([2H])([2H])[2H] (stereo not drawn) [I-4hydrochloride] , test system: hERG potassium channel (Homo sapiens)
**A:** 4.96

* * *

Tested on: ICR mice
test.details: Evaluation of side effects of constipation (defecation time, number, weight)
Type: in vivo
condition.info: 5 mg/kg; first black stool; x ± SE; only animals that defecate within 5 hours
Counter-ions that a name gives are not always drawn.
Measured Defecation time by item
Give the value, in units of min, as a plain number.

Consider the worked cases shown below.
**Q:** Report Defecation time, nothing else, for this compound: [2H]C([2H])([2H])N(C)C[C@@H]1CN(C(=O)Cc2cc(F)c(F)cc2F)CC[C@@]1(O)c1cccc(OC)c1 [II-7hydrochloride]
**A:** 200.6

**Q:** Report Defecation time, nothing else, for this compound: [2H]C([2H])([2H])N(C)C[C@@H]1CN(S(=O)(=O)Cc2ccccc2)CC[C@@]1(O)c1cccc(OC)c1 [II-1hydrochloride]
**A:** 202.4

Now let's try a different one.
**Q:** Report Defecation time, nothing else, for this compound: [2H]C([2H])([2H])Oc1cccc([C@]2(O)CCN(S(=O)(=O)Cc3ccccc3)C[C@H]2CN(C([2H])([2H])[2H])C([2H])([2H])[2H])c1 [II-5hydrochloride]
**A:** 202.8

* * *

system.name: hERG potassium channel (Homo sapiens)
test.details: hERG potassium channel whole-cell patch clamp (HEK293)
Type: cell-based
Set-up: expressed in transfected cells; host or cells: HEK293 cell line
Where a name gives a salt, the structure may show the parent alone.
readout: hERG inhibition grade

**Q:** Report hERG inhibition grade, nothing else, for this compound: [2H]C([2H])([2H])N(C)CC1CN(S(=O)(=O)Cc2ccccc2)CCC1(O)c1cccc(OC)c1 (stereo not drawn) [I-1hydrochloride]
**A:** μM((Weak inhibition)

**Q:** Report hERG inhibition grade, nothing else, for this compound: [2H]C([2H])([2H])Oc1cccc([C@]2(O)CCN(C(=O)Cc3cc(F)c(F)cc3F)C[C@H]2CN(C([2H])([2H])[2H])C([2H])([2H])[2H])c1 [II-11hydrochloride]
**A:** μM((Weak inhibition)

**Q:** Report hERG inhibition grade, nothing else, for this compound: [2H]C([2H])([2H])N(C[C@@H]1CN(S(=O)(=O)Cc2ccccc2)CC[C@@]1(O)c1cccc(OC)c1)C([2H])([2H])[2H] [II-3hydrochloride]
**A:** μM((Weak inhibition)

* * *

test.details: Metabolic stability in liver microsomes, human
condition.info: human, microsomes, pH 7.4
Structures can show the parent of a compound that is named as a salt.
readout: microsomal CLint at 2 μM (µL/min/mg)
Give the value, in units of µL/min/mg, as a plain number.

Consider the worked cases shown below.
**Q:** Report microsomal CLint at 2 μM, nothing else, for this molecule: COc1ccsc1CNCC[C@@]1(c2ccccn2)CCOC2(CCCC2)C1 [TRV-130, reference compound]
**A:** 340

**Q:** Report microsomal CLint at 2 μM, nothing else, for this molecule: [2H]C([2H])([2H])N(C[C@@H]1CN(S(=O)(=O)Cc2ccccc2)CC[C@@]1(O)c1cccc(OC)c1)C([2H])([2H])[2H] [II-3hydrochloride]
**A:** 685

Now let's try a different one.
**Q:** Report microsomal CLint at 2 μM, nothing else, for this molecule: [2H]C([2H])([2H])Oc1cccc([C@]2(O)CCN(S(=O)(=O)Cc3ccccc3)C[C@H]2CN(C([2H])([2H])[2H])C([2H])([2H])[2H])c1 [II-5hydrochloride]
**A:** 704

* * *

test.details: Metabolic stability in liver microsomes, mouse
condition.info: mouse, microsomes, pH 7.4
Procedure: The solution B is slowly dropped into solution A, and the pH is adjusted to 7.40±0.05. • Control drug: 4 μL Verapamil solution (10 mM) is added with 96 μL DMSO and diluted to 400 μM; • Compound to be tested: 4 μL compound to be tested (10 mM) is added with 96 μL normal saline and diluted to 400 μM. The microsomes are stored in the refrigerator at −80° C., thawed at room temperature after being taken out, and mixed gently. […] PBS (100 mm, pH=7.4) solution is added to the negative sample. […]
Counter-ions that a name gives are not always drawn.
readout: half-life at 2 μM (min)
Give the value, in units of min, as a plain number.

**Q:** Report half-life at 2 μM, nothing else, for this compound: COc1ccsc1CNCC[C@@]1(c2ccccn2)CCOC2(CCCC2)C1 [TRV-130, reference compound]
**A:** 1.67

New cases:
**Q:** Report half-life at 2 μM, nothing else, for this compound: [2H]C([2H])([2H])Oc1cccc([C@]2(O)CCN(S(=O)(=O)Cc3ccccc3)C[C@H]2CN(C([2H])([2H])[2H])C([2H])([2H])[2H])c1 [II-5hydrochloride]
**A:** 6.05

**Q:** Report half-life at 2 μM, nothing else, for this compound: [2H]C([2H])([2H])N(C[C@@H]1CN(S(=O)(=O)Cc2ccccc2)CC[C@@]1(O)c1cccc(OC)c1)C([2H])([2H])[2H] [II-3hydrochloride]
**A:** 5.24

**Q:** Report half-life at 2 μM, nothing else, for this compound: [2H]C([2H])([2H])N(C)C[C@@H]1CN(C(=O)Cc2cc(F)c(F)cc2F)CC[C@@]1(O)c1cccc(OC)c1 [II-7hydrochloride]
**A:** 5.15

**Q:** Report half-life at 2 μM, nothing else, for this compound: [2H]C([2H])([2H])Oc1cccc([C@]2(O)CCN(C(=O)Cc3cc(F)c(F)cc3F)C[C@H]2CN(C([2H])([2H])[2H])C([2H])([2H])[2H])c1 [II-11hydrochloride]
**A:** 6.01

**Q:** Report half-life at 2 μM, nothing else, for this compound: [2H]C([2H])([2H])N(C[C@@H]1CN(C(=O)Cc2cc(F)c(F)cc2F)CC[C@@]1(O)c1cccc(OC)c1)C([2H])([2H])[2H] [II-9hydrochloride]
**A:** 5.03

**Q:** Report half-life at 2 μM, nothing else, for this compound: [2H]C([2H])([2H])N(C)C[C@@H]1CN(S(=O)(=O)Cc2ccccc2)CC[C@@]1(O)c1cccc(OC)c1 [II-1hydrochloride]
**A:** 5.19

* * *

System: ICR mice
test.details: Evaluation of side effects of constipation (defecation time, number, weight)
Assay type: in vivo
condition.info: 5 mg/kg; 10 mice per group; within 5 hours
Protocol: Constipation side effect is a common side effect of opioid drugs. This patent evaluates the possibility of constipation side effect by the influence of the compound on defecation time, defecation quantity and defecation weight of experimental animals. […] After administration for 30 minutes, the mice in each group are given Chinese ink by gavage. After administration, the mice are kept in a single cage, and the excretion time of the first black stool is recorded. […]
Counter-ions that a name gives are not always drawn.
readout: Number of defecating animals

Consider the worked cases shown below.
**Q:** Report Number of defecating animals, nothing else, for this compound: [2H]C([2H])([2H])N(C[C@@H]1CN(S(=O)(=O)Cc2ccccc2)CC[C@@]1(O)c1cccc(OC)c1)C([2H])([2H])[2H] [II-3hydrochloride]
**A:** 2

**Q:** Report Number of defecating animals, nothing else, for this compound: [2H]C([2H])([2H])Oc1cccc([C@]2(O)CCN(C(=O)Cc3cc(F)c(F)cc3F)C[C@H]2CN(C([2H])([2H])[2H])C([2H])([2H])[2H])c1 [II-11hydrochloride]
**A:** 2

Now let's try a different one.
**Q:** Report Number of defecating animals, nothing else, for this compound: [2H]C([2H])([2H])N(C)C[C@@H]1CN(C(=O)Cc2cc(F)c(F)cc2F)CC[C@@]1(O)c1cccc(OC)c1 [II-7hydrochloride]
**A:** 3
